Species: Mus musculus
Experiment: Equilibrium dissociation constant (Kd) was determined
MEASURED_ATTRIBUTE: pKd
Please express pKd as -log10 of the molar concentration.

Ask | Consider the compound `CN1CCC[C@H]1c1cccnc1` and give its recorded pKd.
Reply | 8.85

###

Organism: Mus musculus
Experiment: Inhibition of spontaneous activity in mice
Assay type: functional
MEASURED_ATTRIBUTE: ED50 (µmol/kg)
Respond with the bare value in µmol/kg.

MOLECULE | UNIT_ABBREVIATION | VALUE_MEASURED
CN1CCC2CCc3ccncc3C21 (single isomer, unassigned; (-)) | µmol/kg | 61.7
c1cc2c(cn1)C1NCCC1CC2 (racemic) | µmol/kg | 24.8
CN1CCC[C@H]1c1cccnc1 [NICOTINE] | µmol/kg | 4.44

Ask | Give the reported value of ED50 for this record: CN1CCC2CCc3ccncc3C21 (single isomer, unassigned; (+))
Reply | 7.13
